Assay: Antagonist activity at P2Y12 receptor in human platelet rich plasma assessed as inhibition of ADP-induced platelet aggregation by light transmission aggregometry
parameter: IC50 (nM)
Answers are plain numbers, in nM.

{"smiles-data": "CCCCCOC(=O)N1CCN(C(=O)[C@H](CCC(=O)O)NC(=O)c2cc(N3CCC(CCOC)CC3)nc(-c3ccccc3)n2)CC1", "IC50 / nM": 6300}
{"smiles-data": "CCCCCOC(=O)N1CCN(C(=O)[C@H](CCC(=O)O)NC(=O)c2cc(N3CCC(CC(=O)NC)CC3)nc(-c3ccccc3)n2)CC1", "IC50 / nM": 1100}

Let's switch to this compound now.
Quick one: IC50 of "CCCCCOC(=O)N1CCN(C(=O)[C@H](CCC(=O)O)NC(=O)c2cc(N3CCC(CCN4CCCC4)CC3)nc(-c3ccccc3)n2)CC1" ?
810
